Reported pKi, 5-hydroxytryptamine receptor 2A (Homo sapiens, UniProt P28223).
A value of pKi is the negative decimal logarithm of a concentration given in moles per litre.

Example results:
c1ccc(CCCCNCC2c3ccccc3Cc3ccccc32)cc1 ... 6.44
c1ccc(CCCNCC2c3ccccc3Cc3ccccc32)cc1 ... 6.65

Consider now this further compound.
Request: pKi of COc1ccc2c3c(ccc2c1)Cc1ccccc1C3CN (stereo not drawn) on 5-hydroxytryptamine receptor 2A (Homo sapiens, UniProt P28223)?
Result: 7.68

---

Reported Ki, Histamine H1 receptor (Homo sapiens, UniProt P35367).
State the value with its unit after it.

Example results:
c1ccc(CCNCC2c3ccccc3Cc3ccccc32)cc1 ... 242 nM
c1ccc(CCCNCC2c3ccccc3Cc3ccccc32)cc1 ... 725 nM
c1ccc(CCCCNCC2c3ccccc3Cc3ccccc32)cc1 ... 964 nM

Consider now this further compound.
Request: Fill in: Ki of COc1ccc2c3c(ccc2c1)Cc1ccccc1C3CN (centres undefined) is ___
Result: 2640 nM

Reference for the values: ChEMBL document CHEMBL1159090
